Value source: PubChem BioAssay AID192

test system: BDF1 mice, B16 melanoma ip, median survival T/C; test: NCI In Vivo Anticancer Drug Screen. Data for tumor model B16 Melanoma (intraperitoneal) in B6D2F1 (BDF1) mice; details: endpoint: median survival time; dose: 0.25 mg/kg/injection; schedule: Q01DX009 (ip); vehicle: Klucel (hydroxypropylcellulose) (HPC); higher = longer survival
Inconclusive results and toxic doses are left out.
readoutKind: T/C

// below: answered molecules
* CC(C)=CCC(OC(=O)C=C(C)C)C1=CC(=O)c2c(O)ccc(O)c2C1=O (centres undefined) | 99 % of control
* Cn1c(=O)c2[nH]c(Cc3ccc4c(c3)OCO4)nc2n(C)c1=O | 96 % of control
* Cc1cc2c(C(C)C)c(O)c(O)c(C=O)c2c(O)c1-c1c(C)cc2c(C(C)C)c(O)c(O)c(C=O)c2c1O | 93 % of control

Proceeding to the next molecule to report its T/C.
Prompt: Fill in reported T/C for this entry: CCC1CC2CC(c3cc4c(cc3OC)N(C)C3C(O)(C(=O)OC)C(OC(C)=O)C5(CC)C=CCN6CCC43C65)c3[nH]c4ccccc4c3CCN(C1)C2 (centres undefined)
Completion: 108 % of control

----------
# T/C values compiled below
Tested on: BDF1 mice, B16 melanoma ip, median survival T/C
Assay: NCI In Vivo Anticancer Drug Screen. Data for tumor model B16 Melanoma (intraperitoneal) in B6D2F1 (BDF1) mice
Details: endpoint: median survival time; dose: 200.0 mg/kg/injection; schedule: Q04DX003 (ip); vehicle: Klucel (hydroxypropylcellulose) (HPC); higher = longer survival
Method: The antitumor activity of compounds was measured in mice bearing transplantable tumors. Survival or tumor size were measured and the results are expressed as the measurement made in the treated group (T) divided by the measurement made in the vehicle treated control group (C). The tumor model used in this assay is B16 Melanoma (intraperitoneal) in B6D2F1 (BDF1) mice
Toxic doses and inconclusive results are not listed.

- COC(=O)CCCCCNC(=O)NCCCCCC(=O)OC: 95 % of control
- C1=Cc2ccccc2/C1=C/c1ccc(/C=C2\C=Cc3ccccc32)cc1: 102 % of control
- NC(CO)C(O)c1ccc([N+](=O)[O-])cc1 (stereo unspecified): 95 % of control

Prompt: Fill in reported T/C for this entry: Cc1noc(/N=C/c2ccccc2)c1C
Completion: 105 % of control

Prompt: Fill in reported T/C for this entry: CCCCC(CC)C1OC(=O)C(C)O1 (stereo unspecified)
Completion: 100 % of control

Prompt: Fill in reported T/C for this entry: CCCCCCCCC(=O)CCC
Completion: 90 % of control

----------
test system: BDF1 mice, B16 melanoma ip, median survival T/C; assay: NCI In Vivo Anticancer Drug Screen. Data for tumor model B16 Melanoma (intraperitoneal) in B6D2F1 (BDF1) mice; details: endpoint: median survival time; dose: 400.0 mg/kg/injection; schedule: Q01DX009 (ip); vehicle: Klucel (hydroxypropylcellulose) (HPC); higher = longer survival
Toxic doses and inconclusive results are not listed.
# T/C values compiled below

// below: answered molecules
* O=C(Cc1ccccc1)OCCc1ccccc1 | 93 % of control
* CC(=O)OC1CCC2(C)C(CCC3C4CC=C(C(C)=O)C4(C)CCC32)C1 (stereo unspecified) | 90 % of control
* COc1cc2c(cc1OC)C1=CC(=O)N3CCCC34OS(=O)OC14CC2 (stereo unspecified) | 101 % of control
* COc1ccc(CSCC(NC(=O)OC(C)(C)C)C(=O)O)cc1 (stereo unspecified) | 95 % of control
* COc1ccccc1NC(=O)Nc1ccccc1OC | 88 % of control
* C/C(=N\O)C(=O)c1ccccc1 | 103 % of control
* CCC1OCC(C(Cl)CCl)O1 (stereo unspecified) | 105 % of control
* CC1CC(NC(=O)/C=C/C(=O)O)CC(C)(C)C1 (stereo unspecified) | 93 % of control
* CCOc1ccc(NC(=O)c2cccc(C(=O)Nc3ccc(OCC)cc3)c2)cc1 | 86 % of control
* CCN(C(=O)Nc1ccc(OC)cc1)c1ccccc1 | 88 % of control

Prompt: Fill in reported T/C for this entry: CC(CC(O)c1ccccc1)c1ccccc1 (stereo unspecified)
Completion: 92 % of control

Prompt: Fill in reported T/C for this entry: CC1=C/C(=N\NS(=O)(=O)c2ccc([N+](=O)[O-])cc2)CC(C)(C)C1
Completion: 88 % of control

Prompt: Fill in reported T/C for this entry: Oc1ccc(C2CCc3ccccc32)cc1 (stereo unspecified)
Completion: 100 % of control

Prompt: Fill in reported T/C for this entry: C/C=C(/C)N(C(C)=O)N(C(C)=O)c1ccc([N+](=O)[O-])cc1[N+](=O)[O-]
Completion: 89 % of control

----------
tested on: BDF1 mice, B16 melanoma ip, median survival T/C; test: NCI In Vivo Anticancer Drug Screen. Data for tumor model B16 Melanoma (intraperitoneal) in B6D2F1 (BDF1) mice; settings: endpoint: median survival time; dose: 12.5 mg/kg/injection; schedule: Q01DX009 (ip); vehicle: saline with Tween-80
Inconclusive results and toxic doses are left out. How the source made its calls: active means survival T/C of 150% or more; inactive means T/C below 125% in these data.
A correct response names exactly one class from True = active, False = inactive

Prompt: So what was the verdict on S=C(Nc1ccccn1)c1ccccn1 in this test?
Completion: False

Prompt: So what was the verdict on Cc1c(Cl)cccc1NC(=O)NCCC(C)C in this test?
Completion: False

Prompt: So what was the verdict on C1=Cc2ccccc2/C1=C/c1cccc(/C=C2\C=Cc3ccccc32)c1 in this test?
Completion: False

Prompt: So what was the verdict on CC(NC1=NCCO1)c1cccc2ccccc12 (configuration not stated) in this test?
Completion: False

Prompt: So what was the verdict on O=C(Nc1nncs1)c1cccs1 in this test?
Completion: False

Prompt: So what was the verdict on CCN=NNc1ccc(C)cc1 in this test?
Completion: False

----------
tested on: BDF1 mice, B16 melanoma ip, median survival T/C; experiment: NCI In Vivo Anticancer Drug Screen. Data for tumor model B16 Melanoma (intraperitoneal) in B6D2F1 (BDF1) mice; conditions: endpoint: median survival time; dose: 200.0 mg/kg/injection; schedule: Q01DX009 (ip); vehicle: saline with Tween-80; higher = longer survival
Inconclusive results and toxic doses are left out.
readoutKind: T/C

Prompt: Fill in reported T/C for this entry: COc1cc(C)c2c(=O)c3c(oc2c1)C(=O)c1c(O)c(OC)cc(O)c1C3=O
Completion: 100 % of control

Prompt: Fill in reported T/C for this entry: Cc1cc2ncn(CO)c2cc1C
Completion: 97 % of control

Prompt: Fill in reported T/C for this entry: Cc1ccccc1NC(=O)c1cc2ccccc2cc1O
Completion: 110 % of control

----------
system: BDF1 mice, B16 melanoma ip, median survival T/C; experiment: NCI In Vivo Anticancer Drug Screen. Data for tumor model B16 Melanoma (intraperitoneal) in B6D2F1 (BDF1) mice; details: endpoint: median survival time; dose: 3.13 mg/kg/injection; schedule: Q01DX009 (ip); vehicle: saline; higher = longer survival
Inconclusive results and toxic doses are left out.
readoutKind: T/C

* CCCC[S+](CCCC)CC(=O)c1ccc(-c2ccccc2)cc1 | 96 % of control
* CN(C)C(=O)c1cccc(COc2ccc(N3C(N)=NC(N)=NC3(C)C)cc2Cl)c1 | 120 % of control
* N=[N+]=CC(=O)OCC(N)C(=O)O (stereo unspecified) | 100 % of control
* CCCCN(C)N=Nc1ccc(CCCC(=O)OCC)cc1 | 100 % of control
* CC(=O)OC(CC(=O)CC(O)(C(F)(F)F)C(F)(F)F)(C(F)(F)F)C(F)(F)F | 102 % of control

Proceeding to the next compound to report its T/C.
Prompt: Fill in reported T/C for this entry: c1ccc(CCN2CCCCC2)nc1
Completion: 106 % of control

----------
# T/C values compiled below
System: BDF1 mice, B16 melanoma ip, median survival T/C
Test: NCI In Vivo Anticancer Drug Screen. Data for tumor model B16 Melanoma (intraperitoneal) in B6D2F1 (BDF1) mice
Settings: endpoint: median survival time; dose: 100.0 mg/kg/injection; schedule: Q01DX009 (ip); vehicle: saline; higher = longer survival
Method: The antitumor activity of compounds was measured in mice bearing transplantable tumors. Survival or tumor size were measured and the results are expressed as the measurement made in the treated group (T) divided by the measurement made in the vehicle treated control group (C). The tumor model used in this assay is B16 Melanoma (intraperitoneal) in B6D2F1 (BDF1) mice
Inconclusive results and toxic doses are left out.

• Cc1[nH]c(=S)sc1C = 102 % of control
• COc1cc(OC)c(OC)cc1/C=C\c1ccnc2ccccc12 = 97 % of control
• COc1cc(C2=NCCc3cc4c(cc32)OCO4)cc(OC)c1OC = 101 % of control

Prompt: Given O=C1C=CC(n2cc(F)c(=O)[nH]c2=O)O1 (stereo unspecified) , report its T/C on BDF1 mice, B16 melanoma ip, median survival T/C.
Completion: 97 % of control

Prompt: Given CS(=O)(=O)O , report its T/C on BDF1 mice, B16 melanoma ip, median survival T/C.
Completion: 106 % of control

Prompt: Given CC(N)Cc1cn(C)c2ccccc12 (stereo unspecified) , report its T/C on BDF1 mice, B16 melanoma ip, median survival T/C.
Completion: 88 % of control
